test system: UACC-62; test: NCI tumour cell line growth inhibition, 48 h
The source made the active and inactive calls. No stated cut-off is given here; in the data, active = GI50 up to about 1.1 µM and inactive = higher.
Could you please pick one outcome from this set? active, inactive

Cn1c(=S)[nH]c(N)c(Cc2ccccc2)c1=O ... inactive
Clc1ccc(OCc2nnc(CCCCCCCCc3nnc(COc4ccc(Cl)cc4)n3Nc3ccccc3)n2Nc2ccccc2)cc1 ... active
O=C(O)c1ccccc1/C=N\N=C1NCCCCN1 ... inactive

Q: // param item: "CC(C)/C(Cl)=N/OC(=O)Nc1ccc(F)c(Cl)c1" ; yields the recorded call
Result: inactive

Q: // param item: "CC(C)(C)c1ccc(-c2nnc(-c3cc(C#N)cc(-c4nnc(-c5ccc(C(C)(C)C)cc5)o4)c3)o2)cc1" ; yields the recorded call
Result: inactive

====

test system: M14; test: NCI tumour cell line growth inhibition, 48 h
Active and inactive are the calls of the source. Cut-off read from the data, not from the text of the source: active = GI50 up to about 1.1 µM and inactive = higher.
quantity.measured: GI50

C=C1C(=O)C2=CC1CCC(=O)C1(C)CCC(OC(C)=O)C(C)(C)C1CC2O (stereo not given) ... 2.64 µM (inactive)
O=C1CSC(c2cc3cc(Br)ccc3nc2Cl)N1c1ccc(F)c(Cl)c1 (stereo not given) ... > 50 µM (inactive)
COc1ccc(-c2coc3cc(OC)cc(O)c3c2=O)cc1 [4',7-DIMETHOXY-5-HYDROXYGENISTEIN] ... 52.7 µM (inactive)
OCC1OC2c3ccccc3COC2C1OCc1ccccc1 (stereo not given) ... > 100 µM (inactive)
CN1CC[C@]23c4c5ccc(O)c4O[C@H]2C(O)CC[C@@]3(O)[C@H]1C5 (stereo not given in full) ... > 100 µM (inactive)
Cc1c(Cl)c(S(N)(=O)=O)cc2c1N=CNS2(=O)=O ... > 100 µM (inactive)
COc1cc(C2c3cc4c(cc3[C@@H](Nc3ccccc3)C3COC[C@H]23)OCO4)cc(OC)c1O (stereo not given in full) ... 2.59 µM (inactive)
C/C(=N\NC1=NCCN1)c1cn(C2=NCCN2)nc1C ... > 100 µM (inactive)

Q: What value of measured GI50 is listed for "C[N+](C)(C)CCOP(=O)([O-])OCCNC(=O)c1ccc2ccccc2c1" ?
Result: > 100 µM (inactive)

Q: What value of measured GI50 is listed for CC12CO[C@@](C)(CC(S(=O)(=O)c3ccccc3)C1)O2 (stereo not given in full) ?
Result: > 100 µM (inactive)

Q: What value of measured GI50 is listed for CC1(C)OC(=S)N(c2ccccc2)C12C=Cc1cc3ccccc3cc1O2 (stereo not given) ?
Result: > 100 µM (inactive)

Q: What value of measured GI50 is listed for "O=[N+]([O-])c1c(O)c2nonc2c2nn(-c3ccccc3)nc12" ?
Result: > 100 µM (inactive)

Q: What value of measured GI50 is listed for "CCOC(=O)NC(=O)c1cn(CCN2CCN(C(=O)CNC(=O)CNC(=O)Cn3cc(C(=O)NC(=O)OCC)c(=O)[nH]c3=O)CC2)c(=O)[nH]c1=O" ?
Result: > 100 µM (inactive)

====

system: NCI-H226; assay: NCI tumour cell line growth inhibition, 48 h
Activity calls are given as the source filed them. No stated cut-off is given here; in the data, active = GI50 up to about 1.1 µM and inactive = higher.
Could you please pick one outcome from this set? active, inactive

CCN(CC)CC1CCCCN1CC(=O)N1c2cc(Cl)ccc2NC(=O)CC1C (stereo not given) ... inactive
CCN(CC)CCC(=O)NC1c2ccccc2Oc2c(C)cccc21 (stereo not given) ... inactive
OCC1OC(Oc2cc(O)cc(/C=C\c3ccc(O)cc3)c2)C(O)C(O)C1O (stereo not given) ... inactive
COc1cc2[nH]c(=O)[nH]c2c2c(C)c[nH]c12 ... inactive
COc1ccc(-c2c(N)[n+]([O-])c3cc(C)c(C)cc3[n+]2[O-])cc1OC ... inactive
CC(C)/C(Cl)=N/OC(=O)Nc1ccc(F)c(Cl)c1 ... inactive
CC1(C)OC(=O)N(c2ccccc2)C12C=Cc1cc([N+](=O)[O-])cc([N+](=O)[O-])c1O2 (stereo not given) ... inactive
O=C(Nc1ccccc1)N1CCN(C(=O)Nc2ccccc2)C1=S ... inactive

Q: // param item: "CCCCP(CCCC)(CCCC)=C(C(=O)OC)C(C(=O)OC)=C1SC(C(=O)OC)=C(C(=O)OC)S1" ; yields the recorded call
Result: inactive

Q: // param item: CCCCCCCCCCCCC(Br)C(=O)SCCNC(=O)CCNC(=O)[C@@H](O)C(C)(C)COP(=O)(O)OP(=O)(O)OCC1OC(n2cnc3c(N)ncnc32)C(O)C1OP(=O)(O)O (stereo not given in full) ; yields the recorded call
Result: inactive

====

tested on: NCI-H460; test: NCI tumour cell line growth inhibition, 48 h
Calls of active or inactive are those of the source. Rule as the data show it: active = GI50 up to about 1.1 µM and inactive = higher.
Could you please pick one outcome from this set? 1 = active, -1 = inactive

Example entries begin here.
CCOC(=O)COc1ccc(OC)c2c1C(=O)CCC2 ... -1
CN(C)c1ccc(/C=C/c2cc(-c3ccccc3)[n+](C)n2-c2ccccc2)cc1 ... 1
NC1(CCCCCCCCCCC(=O)O)CNCCNCCNCCNC1 ... -1
COC(=O)c1c(C)cccc1/C=C1\Cc2cc(C)cc(C)c2C1=O ... -1
COc1ccc(/C=C(\NC(=O)c2ccccc2)c2nc3ccccc3[nH]2)cc1OC ... -1
CC1(C)OC(=S)N(c2ccccc2)C12C=Cc1cc3ccccc3cc1O2 (stereo not given) ... -1
CC(C)(C)N/N=C(\C(=O)Nc1cccc(Cl)c1)C1C(=O)Nc2ccccc2[S+]1[O-] (stereo not given) ... -1
CC[C@]1(Cc2ccc(OC)c(OC)c2)[C@@H]2C[C@@H](C3OCCO3)ON2O[C@H](OC2CCCC2(c2ccccc2)c2ccccc2)[C@@H]1OC(C)=O (stereo not given in full) ... -1

Q: // param item: "COc1ccc2nc3c([N+](=O)[O-])ccc(NCCCN(C)C)c3c(N)c2c1" ; yields the recorded call
Result: -1

====

Measured GI50, listed per entry.
tested on: OVCAR-3; experiment: NCI tumour cell line growth inhibition, 48 h
Activity calls are given as the source filed them. Rule as the data show it: active = GI50 up to about 1.1 µM and inactive = higher.

Cc1nc2cccc(F)c2c(=O)n1-c1nnc(C2CC2)s1 ... > 10 µM (inactive)

Q: What value of measured GI50 is listed for "N#Cc1c(N)c2c(c(-c3ccccc3)c1-c1ccccc1)C(=O)N(O)C2=O" ?
Result: 26.9 µM (inactive)

====

Measured GI50, listed per entry.
test system: KM12; assay: NCI tumour cell line growth inhibition, 48 h
Calls of active or inactive are those of the source. No stated cut-off is given here; in the data, active = GI50 up to about 1.1 µM and inactive = higher.

Check out these entries, answers already filled in.
CCOC(=O)NC(=O)c1cn(CCN2CCN(C(=O)CNC(=O)CNC(=O)Cn3cc(C(=O)NC(=O)OCC)c(=O)[nH]c3=O)CC2)c(=O)[nH]c1=O ... > 100 µM (inactive)
O=C(/C=C/c1c(O)ccc2ccccc12)c1ccccc1Cl ... 38.5 µM (inactive)
CCOC(=O)C1(Cc2c[nH]c3ccccc23)C(O)CCCN1C(C)=O (centres undefined) ... > 100 µM (inactive)

Please examine the following record next.
Q: What value of measured GI50 is listed for "Cc1cc(O)c2c(=O)c3c(O)cc(O)c4c5c(O)cc(O)c6c(=O)c7c(O)cc(C)c8c1c2c(c34)c(c78)c65" ?
Result: 54.5 µM (inactive)

====

test system: SNB-78; experiment: NCI tumour cell line growth inhibition, 48 h
The source made the active and inactive calls. Rule as the data show it: active = GI50 up to about 1.1 µM and inactive = higher.
quantity.measured: GI50

COc1cc(C2c3cc4c(cc3[C@@H](Nc3ccccc3)C3COC(=O)[C@H]23)OCO4)cc(OC)c1O (some centres undefined) ... 2.37 µM (inactive)

Q: Give GI50 (SNB-78) of the following compound: CC12CO[C@@](C)(CC(S(=O)(=O)c3ccccc3)C1)O2 (some centres undefined)
Result: > 100 µM (inactive)

Q: Give GI50 (SNB-78) of the following compound: "CCOC(=O)NC(=O)c1cn(CCN2CCN(C(=O)CNC(=O)CNC(=O)Cn3cc(C(=O)NC(=O)OCC)c(=O)[nH]c3=O)CC2)c(=O)[nH]c1=O"
Result: > 100 µM (inactive)

Q: Give GI50 (SNB-78) of the following compound: CCN(CC)C(=S)SC1CCOP(=O)(N(CCCl)CCCl)N1C (centres undefined)
Result: 49.2 µM (inactive)

====

Measured GI50, listed per entry.
system: SK-MEL-28; experiment: NCI tumour cell line growth inhibition, 48 h
Active and inactive are the calls of the source. Cut-off read from the data, not from the text of the source: active = GI50 up to about 1.1 µM and inactive = higher.

Check out these entries, answers already filled in.
CCOc1c(OC)cc(C2c3cc4c(c(OCC)c3CC3COC(=O)C32)OCO4)cc1OC (stereo unspecified) ... 16.6 µM (inactive)
O=C(O)/C=C/C(=O)N1C/C(=C\c2ccccc2)C(=O)/C(=C/c2ccccc2)C1 ... 6.49 µM (inactive)
COC(=O)c1c(C)cccc1/C=C1\Cc2cc(C)cc(C)c2C1=O ... > 100 µM (inactive)
Cc1cccc(C(C)C)c1NC(=O)C(=O)C(C(=O)c1ccccc1F)C1OC(=O)c2ccccc21 (stereo unspecified) ... 14.4 µM (inactive)
N#C/C(=C\c1cc(OCc2ccccc2)c(OCc2ccccc2)cn1)C(N)=O ... > 100 µM (inactive)

Q: Give GI50 (SK-MEL-28) of the following compound: "COc1ccc(CNc2cnc3ccc(N)cc3n2)cc1"
Result: 3.84 µM (inactive)

Q: Give GI50 (SK-MEL-28) of the following compound: "C[s+]1c2ccccc2c2ccccc21"
Result: > 100 µM (inactive)

Q: Give GI50 (SK-MEL-28) of the following compound: "CCCCCCCCCCCCSC(=S)c1c(C)[nH]n(-c2ccccc2)c1=O"
Result: 7.36 µM (inactive)

Q: Give GI50 (SK-MEL-28) of the following compound: O=C(Nc1ncc([N+](=O)[O-])s1)c1ccccc1O [TIZOXANIDE]
Result: 26.4 µM (inactive)

Q: Give GI50 (SK-MEL-28) of the following compound: CCOC(=O)CC(NC(=O)c1nc[nH]c1/N=N/N(C)C)C(=O)OCC (stereo unspecified)
Result: > 100 µM (inactive)

Q: Give GI50 (SK-MEL-28) of the following compound: "CC#CC#C/C(=C/C=CC(=O)OC)SC"
Result: > 100 µM (inactive)
